Data origin, for the record: the Immune Epitope Database (IEDB)

# TARGET OF ASSAY: HLA-A*32:01
# ASSAY: IEDB peptide-MHC binding, purified MHC/competitive/radioactivity; filed as Kd, often an IC50 or EC50 that approximates it; bounds were set here for any values at or beyond the usual limits of such assays
# CONDITION LABEL: source organism: Dengue virus 4 Philippines/H241/1956
MEASURED ENDPOINT: pKd
One number for each entry, as −log10 of the molar value.

The measured pKd associated with FLNEDHWFGR reads 5.81

====

# TARGET OF ASSAY: HLA-B*15:02
# ASSAY: IEDB peptide-MHC binding, purified MHC/competitive/fluorescence; filed as Kd, often an IC50 or EC50 that approximates it; bounds were set here for any values at or beyond the usual limits of such assays
# CONDITION LABEL: source organism: Homo sapiens
MEASURED ENDPOINT: Kd (nM)
Answers are plain numbers, in nM.

The measured Kd associated with SIRDGVRAY reads 13.8
